Measurement target: Induced myeloid leukemia cell differentiation protein Mcl-1 (Homo sapiens) (UniProt Q07820)
Sequence (Q07820 whole entry, looked up): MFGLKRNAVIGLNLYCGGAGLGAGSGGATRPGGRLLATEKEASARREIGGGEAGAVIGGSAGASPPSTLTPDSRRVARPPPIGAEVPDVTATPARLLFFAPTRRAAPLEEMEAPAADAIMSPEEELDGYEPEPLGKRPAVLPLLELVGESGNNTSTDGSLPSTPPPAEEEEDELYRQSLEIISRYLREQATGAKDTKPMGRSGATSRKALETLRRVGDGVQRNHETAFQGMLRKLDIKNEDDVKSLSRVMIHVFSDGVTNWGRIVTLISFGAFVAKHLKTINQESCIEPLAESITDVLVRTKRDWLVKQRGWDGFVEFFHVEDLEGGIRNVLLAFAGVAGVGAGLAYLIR
Assay remarks: MCL1-BIM peptide interaction disruptors – biochemical, fluorescence polarization, primary screen (AID 2057);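 also: 0% = DMSO wells and 100% = unlabeled Bim-BH3 peptide control; higher means more loss of mP so more displacement of Bim peptide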
Settings: GST-MCL1 / FITC-Bim-BH3 fluorescence polarization; at 10.9 µM; stronger effect = higher value
The whole screen tested about 320,000 compounds, of which about 2,100 (0.66%) were called active. This excerpt belongs to a sample that is enriched for actives.
Measure name: inhibition (%)
// note: answer is a bare numeric in %

Reference set, count: 5
1. COc1ccc(CC(=O)Nc2c3c(nn2-c2cccc(Cl)c2)CS(=O)C3)cc1 (centres undefined); -2.25
2. Cc1ccnc(NC(=O)CNC(=O)c2ccccc2)c1; 6.08
3. C=C(C)CSc1nnc(-c2ccc(C)cc2)n1N; -0.24
4. COc1cccc(Nc2ncccc2C(=O)O)c1; 1.4
5. C/C(=N\NC(=O)c1ccoc1C)c1ccccc1O; 4.86

Entry CC1(NC(=O)CCS(=O)(=O)c2ccc(Cl)cc2)CCS(=O)(=O)C1 (centres undefined) : reported inhibition = ?
-1.26

Try this molecule next: `COCCNC(=O)Nc1ccc2nc(-c3ccco3)c(-c3ccco3)nc2c1`
131

Try this molecule next: `COc1ccc2oc(=O)c(C(=O)NCc3ccccn3)cc2c1`
0.27

Try this molecule next: `CCCc1nc2c(c(=O)c3ccccc3n2C)c(=O)n1C1CCCCCC1`
-7.58

###

Measurement target: Induced myeloid leukemia cell differentiation protein Mcl-1 (Homo sapiens) (UniProt Q07820)
Assay remarks: MCL1-BIM peptide interaction disruptors – biochemical, fluorescence polarization, primary screen (AID 2057);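 also: 0% = DMSO wells and 100% = unlabeled Bim-BH3 peptide control; higher means more loss of mP so more displacement of Bim peptide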
Settings: GST-MCL1 / FITC-Bim-BH3 fluorescence polarization; at 10.9 µM; stronger effect = higher value
Hit rate of the full screen: of about 320,000 compounds, about 2,100 (0.66%) were called active. This excerpt belongs to a sample that is enriched for actives.
Catalogue of inhibition values

Reference set, count: 5
1) Cc1cc(C)cc(OCC(=O)Nc2ccc(N3CCOCC3)cc2N2CCOCC2)c1; 1.14% (inactive)
2) CN(C)S(=O)(=O)c1ccc(N/C=C(\[N+](=O)[O-])S(=O)(=O)c2ccccc2)cc1; 2.14% (inactive)
3) CCCCCCn1c(CN2CCCC(C)C2)nc2c1c(=O)n(C)c(=O)n2C (stereo unspecified); 4.79% (inactive)
4) CCOC(=O)C1CCCN(C(=O)COc2ccc(N(C)S(=O)(=O)c3ccc(C)cc3)cc2)C1 (stereo unspecified); -2.82% (inactive)
5) CCOc1ccccc1NC(=S)N1CCN(c2cccc(C)c2C)CC1; 4.81% (inactive)

Entry `O=C(NCCSCc1ccccc1)c1ccc(Cl)c(S(=O)(=O)N2CCOCC2)c1` : reported inhibition = ?
1.14% (inactive)

Try this molecule next: CN(C(=O)COC(=O)c1nc(Cl)ccc1Cl)C1CCS(=O)(=O)C1 (stereo unspecified)
-0.55% (inactive)

Try this molecule next: `COc1ccc(-c2cc(C(=O)N(C)Cc3ccccc3)c3ccccc3n2)cc1`
-5.9% (inactive)

Try this molecule next: `COC(=O)c1sc(=S)n(-c2ccc(Cl)cc2)c1C`
1.56% (inactive)

Try this molecule next: CCC1(C)Cc2c(sc3nc(SC)[nH]c(=O)c23)CO1 (stereo unspecified)
6.42% (inactive)

Try this molecule next: `CC(C)N(C(=O)COC(=O)c1ccccc1C(=O)N1CCN(c2ccc(F)cc2)CC1)C(C)C`
11.2% (inactive)

Try this molecule next: `O=C(O)CCn1c(Cc2ccccc2)nc2ccccc21`
1.68% (inactive)

Try this molecule next: `CCCOc1ccc(Cl)cc1Nc1nc(NCCO)nc(N2CCCC2)n1`
3.82% (inactive)

Try this molecule next: `CN(CC(=O)NC1CCN(Cc2ccccc2)CC1)S(=O)(=O)c1ccc(Cl)s1`
3.17% (inactive)

Try this molecule next: `Cc1cc(C)n(-c2nnc(C)n2NC(=O)c2cccc(Cl)c2)n1`
-1.3% (inactive)

Try this molecule next: `COC(=O)c1ccc(SCc2ccccc2)nc1`
11.2% (inactive)

Try this molecule next: `CN(CCOc1ccccc1)C(=O)c1cc(-c2ccco2)nc2ccccc12`
46% (active)

Try this molecule next: `O=C(Nc1ccc(C(=O)O)c(O)c1)c1ccccc1`
-1.25% (inactive)

Try this molecule next: `Cc1cc2ccccc2n1CCNC(=O)COc1ccc2ccccc2c1`
2.6% (inactive)

Try this molecule next: `O=C(COC(=O)c1n[nH]c2ccccc12)NCc1ccccc1`
-0.26% (inactive)

Try this molecule next: CC1CCc2sc(C(=O)NCC(c3ccco3)N3CCCCC3)cc2C1 (stereo unspecified)
-3.03% (inactive)
